Examples of compounds with documented MIC follow.
Tested on: E. faecium ATCC19434
test_protocol: MIC, agar plate dilution method, E. faecium ATCC19434
Assay type: cell-based, Enterococcus faecium
measurement_context: Enterococcus faecium, ATCC19434, E. faecium ATCC19434, read-out: minimal inhibitory concentration (MIC)
# output: bare number, implied unit µg/mL

Previously resolved entries follow.
>>> reported_result("CNC1C(O[C@H]2OC(C)[C@@H](NC(=N)N)[C@H](O)C2O)O[C@H]2CC(N)[C@@H](O[C@H]3CC(O)[C@H](N)CC3N)OC2C1O (stereo partly shown)")
4
>>> reported_result("CNC1C(O[C@H]2OC(CO)[C@@H](NCCCN)[C@H](O)C2O)O[C@H]2CC(N)[C@@H](O[C@H]3CC(O)[C@H](N)CC3N)OC2C1O (stereo partly shown)")
8
>>> reported_result("CNC1C(O[C@H]2OC(CO)[C@@H](NC(=O)CCN)[C@H](O)C2O)O[C@H]2CC(N)[C@@H](O[C@@H]3C(N)C[C@@H](N)C(O)[C@H]3O)OC2C1O (stereo partly shown)")
32
>>> reported_result("CNC1C(O[C@H]2OC(CO)[C@@H](N)[C@H](N)C2O)O[C@H]2CC(N)[C@@H](O[C@@H]3C(N)C[C@@H](N)C(O)[C@H]3O)OC2C1O (stereo partly shown)")
32
>>> reported_result("CNC1C(O[C@H]2OC(C)[C@@H](NC(CN)CN)[C@H](O)C2O)O[C@H]2CC(N)[C@@H](O[C@H]3CC(O)[C@H](N)CC3N)OC2C1O (stereo partly shown)")
4

In: For the compound CNC1C(O[C@H]2OC(CO)[C@@H](NC(=N)N)[C@H](O)C2O)O[C@H]2CC(N)[C@@H](O[C@H]3CC[C@H](N)CC3N)OC2C1O (stereo partly shown) , what MIC is on record?
Out: 4

In: What value of MIC has been reported for the following compound? CNC1C(O[C@H]2OC(CO)[C@@H](NC(=O)CN)[C@H](O)C2O)O[C@H]2C[C@H](N)[C@@H](O[C@@H]3C(N)C[C@@H](N)C[C@H]3O)OC2C1O (stereo partly drawn) [Compound V1-o, 6-deoxy-5-epi-4″-N-glycylapramycin]
Out: 8

In: So what's the measured MIC for this one? CNC1C(O[C@H]2OC(CO)[C@@H](NCCN)[C@H](O)C2O)O[C@H]2CC(N)[C@@H](O[C@@H]3C(N)C[C@@H](N)C[C@H]3O)OC2C1O (stereo partly shown)
Out: 16

In: Please give the measured MIC for this compound: CNC1C(O[C@H]2OC(CO)[C@@H](NC(=O)[C@H](C)N)[C@H](O)C2O)O[C@H]2CC(N)[C@@H](O[C@@H]3C(N)C[C@@H](N)C(O)[C@H]3O)OC2C1O (stereo partly drawn) [Compound V1-k, 4″-N-(L-alanyl)-5-epiapramycin]
Out: 16

In: MIC lookup needed for CNC1C(O[C@H]2OC(CO)[C@@H](NC(=N)N)[C@H](O)C2O)O[C@H]2CC(N)[C@@H](O[C@@H]3C(N)C[C@@H](N)C(O)[C@H]3F)OC2C1O (stereo partly shown) , thanks.
Out: 16
